- TARGET_SYSTEM: Histamine H3 receptor (Homo sapiens, UniProt Q9Y5N1)
- Sequence (Q9Y5N1 whole entry): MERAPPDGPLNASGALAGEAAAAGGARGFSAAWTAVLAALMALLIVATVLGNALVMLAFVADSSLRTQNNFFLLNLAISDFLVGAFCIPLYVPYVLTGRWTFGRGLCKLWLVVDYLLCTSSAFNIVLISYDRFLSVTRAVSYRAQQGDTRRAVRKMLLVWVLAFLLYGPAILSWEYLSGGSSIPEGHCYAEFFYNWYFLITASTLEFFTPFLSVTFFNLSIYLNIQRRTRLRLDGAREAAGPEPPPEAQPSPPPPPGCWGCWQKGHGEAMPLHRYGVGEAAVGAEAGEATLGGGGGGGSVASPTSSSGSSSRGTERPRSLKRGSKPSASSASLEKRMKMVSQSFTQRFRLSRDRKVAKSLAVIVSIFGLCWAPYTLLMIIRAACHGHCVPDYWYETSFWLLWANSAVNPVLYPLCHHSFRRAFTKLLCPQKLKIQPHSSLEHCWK
- RUN_DESCRIPTION: Displacement of [3H](R)-alpha-methylhistamine from human histamine H3 receptor at 10 uM
Measured Activity values are reported for all entries that follow.
Please reply with the bare figure in % and do not write the unit itself.

Some solved cases for reference:
{"MOLECULE": "COC(=O)c1ccc(COc2ccc(Nc3ncnc4ccccc34)c(CN(C)C)c2)cc1", "TARGET_SYSTEM": "Histamine H3 receptor (Homo sapiens, UniProt Q9Y5N1)", "UNIT_OF_MEASUREMENT": "%", "Activity": 31}
{"MOLECULE": "CN(C)C(=O)c1cc(OC2CCCCO2)ccc1OCc1ccccc1Cl (configuration not stated)", "TARGET_SYSTEM": "Histamine H3 receptor (Homo sapiens, UniProt Q9Y5N1)", "UNIT_OF_MEASUREMENT": "%", "Activity": 17}
{"MOLECULE": "COc1ccccc1COc1ccc(OCCCN2CCOCC2)cc1C(=O)N(C)C", "TARGET_SYSTEM": "Histamine H3 receptor (Homo sapiens, UniProt Q9Y5N1)", "UNIT_OF_MEASUREMENT": "%", "Activity": 73.4}
{"MOLECULE": "CN(C)C(=O)c1cc(OCc2ccc(F)cc2)ccc1OCc1ccccc1Cl", "TARGET_SYSTEM": "Histamine H3 receptor (Homo sapiens, UniProt Q9Y5N1)", "UNIT_OF_MEASUREMENT": "%", "Activity": 33}
{"MOLECULE": "CCOC(=O)CCCOc1ccc(Nc2ncnc3ccccc23)c(CN(C)C)c1", "TARGET_SYSTEM": "Histamine H3 receptor (Homo sapiens, UniProt Q9Y5N1)", "UNIT_OF_MEASUREMENT": "%", "Activity": 28}

Prompt: Activity lookup needed for CN(C)Cc1cc(O)ccc1Nc1ncnc2ccccc12 , thanks.
Response: 11.6

Prompt: Suppose we examine the molecule CN(C)Cc1cc(OCCCCl)ccc1Nc1ncnc2ccccc12 ; what Activity value has been reported?
Response: 49

====

- TARGET_SYSTEM: UniProt Q9Y5N1
pKi: −log10 of the molar value.
Cut-off 7 on pKi, inclusive. At or above means Y; below means N.

{"COMPOUND": "COc1ccccc1COc1ccc(OCCCN2CCCCC2)cc1C(=O)N(C)C", "QUALITATIVE_LABEL": "Y"}
{"COMPOUND": "CN(C)Cc1cc(OCCCN2CCCCC2)ccc1Nc1ncnc2ccccc12", "QUALITATIVE_LABEL": "Y"}
{"COMPOUND": "CN(C)C(=O)c1cc(OCCCN2CCCCC2)ccc1OCc1ccccc1Cl", "QUALITATIVE_LABEL": "Y"}
{"COMPOUND": "CN(C)C(=O)c1cc(OCCC2CCCN2C)ccc1OCc1ccccc1Cl (stereo unspecified)", "QUALITATIVE_LABEL": "N"}

Now examine the next entry.
Prompt: Entry CN(C)Cc1cc(OCCCN2CCCCC2)ccc1OCc1ccccc1Cl : is its pKi no less than 7?
Response: Y

====

- TARGET_SYSTEM: Histamine H3 receptor (Rattus norvegicus, UniProt Q9QYN8)
- Sequence (Q9QYN8 whole entry): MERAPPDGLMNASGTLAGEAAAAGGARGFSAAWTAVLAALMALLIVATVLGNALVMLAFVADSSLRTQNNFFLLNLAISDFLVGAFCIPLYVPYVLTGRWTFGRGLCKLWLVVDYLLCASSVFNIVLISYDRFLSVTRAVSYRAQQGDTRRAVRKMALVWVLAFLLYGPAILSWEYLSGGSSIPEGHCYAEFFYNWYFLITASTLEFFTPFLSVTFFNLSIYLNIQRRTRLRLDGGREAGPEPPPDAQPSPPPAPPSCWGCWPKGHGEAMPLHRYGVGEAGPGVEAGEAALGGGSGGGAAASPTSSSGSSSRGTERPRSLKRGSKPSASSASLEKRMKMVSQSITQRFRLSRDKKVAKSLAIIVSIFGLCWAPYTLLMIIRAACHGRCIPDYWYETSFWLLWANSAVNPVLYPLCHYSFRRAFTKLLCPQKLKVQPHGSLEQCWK
ENDPOINT_LABEL: Ki
Give me the value, and tack the unit on after it.

Prompt: Request the reported Ki associated with CN(C)Cc1cc(OCCCN2CCCCC2)ccc1Nc1ncnc2ccccc12
Response: 9.8 nM
